Target: human recombinant ATX (Homo sapiens, UniProt Q13822)
Experiment: ATX inhibition, hydrolysis of FRET substrate FS-3
Type: biochemical
Settings: Experimental pIC50, -log IC50, ATX enzyme inhibition
QUANTITY MEASURED: pIC50
// pIC50 here means minus log10 of the molar concentration (mol/L)

pIC50 reported for this compound CS(=O)(=O)N(c1cc(C(=O)Nc2cc(F)c(Cl)c(F)c2)c(Cl)cc1Cl)C1CCOCC1 [Compound 11] : 6.66

====

Biological target: human recombinant ATX (Homo sapiens, UniProt Q13822)
Experiment: ATX inhibition, hydrolysis of FRET substrate FS-3
Type: biochemical
Details: IC50 (nM ± SD) vs FS-3, 1 μM FS-3, 4 nM human rATX, 1 h
QUANTITY MEASURED: IC50 (nM)
Respond numerically; units are nM and should not be typed.

Response field IC50 (human recombinant ATX (Homo sapiens, UniProt Q13822)) for item `CS(=O)(=O)N(c1cc(C(=O)Nc2cc(F)c(Cl)c(F)c2)c(Cl)cc1Cl)C1CCOCC1` : 219

`CS(=O)(=O)N(c1cc(C(=O)Nc2cc(F)c(F)c(F)c2)c(Cl)cc1Cl)C1CCOCC1` tested on human recombinant ATX (Homo sapiens, UniProt Q13822) gave IC50: 220

====

Catalogue of logP values
Assay: log P
Assay type: physicochemical

MOLECULE | logP
O=C(Nc1cc(F)c(F)c(F)c1)c1cc(C(C(=O)O)N2CCOCC2)ccc1F (stereo not shown) | 2.44
N#CC(c1ccc(F)c(C(=O)Nc2cc(F)c(F)c(F)c2)c1)N1CCOCC1 (stereo not shown) | 2.91
CS(=O)(=O)N(c1cc(C(=O)Nc2cc(F)c(F)c(F)c2)c(Cl)cc1Cl)C1CCOCC1 | 3.2

// `CS(=O)(=O)N(c1cc(C(=O)Nc2cc(F)c(Cl)c(F)c2)c(Cl)cc1Cl)C1CCOCC1` : logP value = 3.68

====

Below, each entry is listed alongside its reported solubility.
Test: Water solubility
Type: physicochemical

Take a look at these entries with their results.
COMPOUND | QUANTITY MEASURED | REPORTED VALUE
O=C(Nc1cc(F)c(F)c(F)c1)c1cc(C(C(=O)O)N2CCOCC2)ccc1F (stereo not shown) [Compound 15] | solubility | > 100 µg/mL
CS(=O)(=O)N(c1cc(C(=O)Nc2cc(F)c(F)c(F)c2)c(Cl)cc1Cl)C1CCOCC1 [Compound 10] | solubility | > 100 µg/mL
N#CC(c1ccc(F)c(C(=O)Nc2cc(F)c(F)c(F)c2)c1)N1CCOCC1 (stereo not shown) [Compound 14] | solubility | 50 µg/mL

Here is the next item to consider.
CS(=O)(=O)N(c1cc(C(=O)Nc2cc(F)c(Cl)c(F)c2)c(Cl)cc1Cl)C1CCOCC1 [Compound 11] has a reported solubility of > 100 µg/mL
